Consider the following compounds; for each one, report its IC50.
# Assayed System: human B1 (Homo sapiens, UniProt P46663)
# Sequence (P46663 1-353): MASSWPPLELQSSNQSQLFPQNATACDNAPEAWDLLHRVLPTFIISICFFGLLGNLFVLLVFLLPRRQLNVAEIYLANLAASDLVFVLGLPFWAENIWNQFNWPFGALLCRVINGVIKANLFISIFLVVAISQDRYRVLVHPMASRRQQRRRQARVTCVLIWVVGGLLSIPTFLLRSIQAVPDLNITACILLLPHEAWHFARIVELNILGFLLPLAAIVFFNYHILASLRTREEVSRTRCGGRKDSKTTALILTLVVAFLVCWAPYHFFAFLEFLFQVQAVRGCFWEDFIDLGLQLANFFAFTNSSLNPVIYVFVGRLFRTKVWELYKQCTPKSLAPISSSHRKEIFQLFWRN
# Test Protocol: Calcium flux assay for Bradykinin B1 antagonist, CHO-K1 cell line expressing human B1
# Conditions Used: CHO-K1 cells expressing human B1, agonist Lys-(Des-Arg)-Bradykinin, read-out: Potency (IC50 value against human B1)
Structures can show the parent of a compound that is named as a salt.

Need IC50, item COc1cc(C)c(S(=O)(=O)N(C)Cc2nc(C(=O)N(C)Cc3cccc(CN4CCCC4)c3)co2)c(C)c1
< 10 nM

Need IC50, item COc1cc(C)c(S(=O)(=O)N(C)Cc2cc(C(=O)NC(C)c3ccc(CN4CCCC4)cc3)co2)c(C)c1 (stereo not drawn)
100 to 1000 nM

Need IC50, item COc1cc(C)c(S(=O)(=O)N(C)Cc2noc(C(=O)N3CCN(CCCCN(C)C)CC3)n2)c(C)c1 [Ex 319, trifluoroacetate]
100 to 1000 nM

Need IC50, item COc1cc(C)c(S(=O)(=O)N(C)Cc2cc(C(=O)NCCc3ccc(CN4CC[C@H](N(C)C)C4)cc3)co2)c(C)c1 [Ex 92, trifluoroacetate]
100 to 1000 nM

Need IC50, item COc1cc(C)c(S(=O)(=O)N(C)Cc2cc(C(=O)N(C)Cc3ccc(CN4CCC(N(C)C)C4)cc3)co2)c(C)c1 (stereo not drawn)
10 to 100 nM

Need IC50, item CN(CCc1ccc(C2=NCCN2)cc1)C(=O)c1coc(CN(C2CC2)S(=O)(=O)c2ccccc2C(F)(F)F)n1 [Ex 221, trifluoroacetate]
100 to 1000 nM

====

# Assayed System: human B1 (Homo sapiens, UniProt P46663)
# Construct: host or cells: CHO-K1
# Test Protocol: Calcium flux assay for Bradykinin B1 antagonist, CHO-K1 cell line expressing human B1
# Format: cell-based
# Conditions Used: CHO-K1 cells expressing human B1, agonist Lys-(Des-Arg)-Bradykinin, read-out: Potency (IC50 value against human B1)
Structures can show the parent of a compound that is named as a salt.
Consider the following compounds; for each one, report its IC50.

Need IC50, item COc1cc(C)c(S(=O)(=O)N(Cc2nc(C(=O)N3CCN(Cc4c[nH]c(C)n4)CC3)co2)C2CC2)c(C)c1
< 10 nM

Need IC50, item COc1cc(C)c(S(=O)(=O)N(C)Cc2nc(C(=O)N3CCN(CCCN4CCCC4)CC3)co2)c(C)c1
< 10 nM

Need IC50, item COc1cc(C)c(S(=O)(=O)N(C)Cc2cc(C(=O)NCc3ccc(CNCc4ccncc4)cc3)co2)c(C)c1 [Ex 96, trifluoroacetate]
100 to 1000 nM

Need IC50, item COc1cc(C)c(S(=O)(=O)N(C)Cc2noc(C(=O)N3CCN(C4CCN(C)CC4)CC3)n2)c(C)c1 [Ex 302, trifluoroacetate]
100 to 1000 nM

====

Consider the following compounds; for each one, report its pIC50.
# Assayed System: UniProt:P46663
# Test Protocol: Calcium flux assay for Bradykinin B1 antagonist, CHO-K1 cell line expressing human B1
# Conditions Used: CHO-K1 cells expressing human B1, agonist Lys-(Des-Arg)-Bradykinin, read-out: Potency (IC50 value against human B1)
pIC50: −log10 of the molar value. Counter-ions that a name gives are not always drawn.

Need pIC50, item COc1cc(C)c(S(=O)(=O)N(Cc2nc(C(=O)NCCC3CCCNC3)co2)C2CC2)c(C)c1 (stereo not shown) [Ex 159a]
6.00 to 7.00

Need pIC50, item COc1cc(C)c(S(=O)(=O)N(C)Cc2cc(C(=O)N3CCN(CCN4CCOCC4)CC3)co2)c(C)c1
6.00 to 7.00

Need pIC50, item COc1cc(C)c(S(=O)(=O)N(Cc2nc(C(=O)N3CCC(OC4CCN(C)C4)CC3)co2)C2CC2)c(C)c1 (stereo not shown)
6.00 to 7.00

Need pIC50, item COc1cc(C)c(S(=O)(=O)N(C)Cc2nsc(C(=O)NCCc3ccc(C4=NCCN4)cc3)n2)c(C)c1
> 8.00

Need pIC50, item COc1cc(C)c(S(=O)(=O)N(C)Cc2nnc(C(=O)N(C)Cc3ccc(CN4CCCC(OC)C4)cc3)o2)c(C)c1 (stereo not shown)
6.00 to 7.00

Need pIC50, item COc1cc(C)c(S(=O)(=O)N(Cc2cc(C(=O)N(C)Cc3ccc(CN4CC(O)C4)cc3)co2)C2CC2)c(C)c1
7.00 to 8.00

Need pIC50, item COc1cc(C)c(S(=O)(=O)N(Cc2nc(C(=O)N3CC4CCN(C5CCN(C)CC5)CC4C3)co2)C2CC2)c(C)c1 (stereo not shown) [Ex 206, trifluoroacetate]
6.00 to 7.00

Need pIC50, item COc1cc(C)c(S(=O)(=O)N(Cc2cc(C(=O)N(C)Cc3ccc(CN4CC(OC)C4)cc3)co2)C2CC2)c(C)c1
6.00 to 7.00

Need pIC50, item Cc1cc(S(=O)(=O)N(C)Cc2cc(C(=O)N(C)CCc3ccc(C4=NCCN4)cc3)co2)c(C)cc1Cl
6.00 to 7.00

Need pIC50, item COc1cc(C)c(S(=O)(=O)N(C)Cc2nc(C(=O)NCc3ccc(C4=NCCN4)cc3)co2)c(C)c1
6.00 to 7.00

Need pIC50, item COc1cc(C)c(S(=O)(=O)N(C)Cc2nnc(C(=O)NCCc3ccc(C4=NCCN4)cc3)s2)c(C)c1
> 8.00

Need pIC50, item COc1cc(C)c(S(=O)(=O)N(C)Cc2cc(C(=O)N3CCN(CCN4CCCC4)CC3)co2)c(C)c1
6.00 to 7.00

Need pIC50, item COc1cc(C)c(S(=O)(=O)N(Cc2nnc(C(=O)N3CCN(CCCN(C)C)CC3)o2)C2CC2)c(C)c1
7.00 to 8.00

Need pIC50, item COc1cc(C)c(S(=O)(=O)N(Cc2cc(C(=O)N(C)Cc3ccc(CN4CCC(OC)CC4)cc3)co2)C2CC2)c(C)c1
7.00 to 8.00

Need pIC50, item COc1cc(C)c(S(=O)(=O)N(C)Cc2cc(C(=O)N(C)Cc3ccc(CN4CCC(OC)CC4)cc3)co2)c(C)c1
7.00 to 8.00

Need pIC50, item CCN(Cc1ccc(CN2CCCC2)cc1)C(=O)c1coc(CN(C)S(=O)(=O)c2c(C)cc(OC)cc2C)c1 [Ex 150, trifluoroacetate]
7.00 to 8.00

Need pIC50, item COc1cc(C)c(S(=O)(=O)N(C)Cc2cc(C(=O)NCc3ccc(Nc4cccc[n+]4C)cc3)co2)c(C)c1
6.00 to 7.00

Need pIC50, item COc1cc(C)c(S(=O)(=O)N(Cc2nc(C(=O)N(C)Cc3ccc(CN4CCC(O)C4)cc3)co2)C2CC2)c(C)c1 (stereo not shown)
> 8.00

Need pIC50, item COc1cc(C)c(S(=O)(=O)N(Cc2cc(C(=O)NCc3cccc(CN4CCCC4)c3)co2)C2CC2)c(C)c1
7.00 to 8.00

Need pIC50, item COc1cc(C)c(S(=O)(=O)N(C)Cc2nc(C(=O)N(C)Cc3nnc(CN4CCCC4)s3)co2)c(C)c1 [Ex 201, trifluoroacetate]
6.00 to 7.00

Need pIC50, item COc1cc(C)c(S(=O)(=O)N(Cc2cc(C(=O)N3CCN(CCCN4CCCC4)CC3)co2)C2CC2)c(C)c1 [Ex 115, trifluoroacetate]
7.00 to 8.00

Need pIC50, item COc1cc(C)c(S(=O)(=O)N(C)Cc2nnc(C(=O)N(C)CCc3ccc(C4=NCCN4)cc3)s2)c(C)c1
> 8.00

====

# Assayed System: human B1 (Homo sapiens)
# Sequence (P46663 1-353): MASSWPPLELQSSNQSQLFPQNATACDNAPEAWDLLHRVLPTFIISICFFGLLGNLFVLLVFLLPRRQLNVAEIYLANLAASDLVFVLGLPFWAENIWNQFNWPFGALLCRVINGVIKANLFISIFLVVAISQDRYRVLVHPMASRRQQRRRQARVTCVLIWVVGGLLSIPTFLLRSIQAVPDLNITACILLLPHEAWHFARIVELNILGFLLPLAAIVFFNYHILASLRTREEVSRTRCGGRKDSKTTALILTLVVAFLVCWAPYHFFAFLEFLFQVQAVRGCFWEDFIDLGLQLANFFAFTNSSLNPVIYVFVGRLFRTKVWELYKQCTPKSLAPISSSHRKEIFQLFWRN
# Test Protocol: Calcium flux assay for Bradykinin B1 antagonist, CHO-K1 cell line expressing human B1
# Conditions Used: CHO-K1 cells expressing human B1, agonist Lys-(Des-Arg)-Bradykinin, read-out: Potency (IC50 value against human B1)
pIC50: −log10 of the molar value. Structures can show the parent of a compound that is named as a salt.
Consider the following molecules; for each one, report its pIC50.

Need pIC50, item COc1cc(C)c(S(=O)(=O)N(C)Cc2cc(C(=O)NC(C)c3ccc(CN4CCC(O)C4)cc3)co2)c(C)c1 (centres unmarked)
6.00 to 7.00

Need pIC50, item Cc1cc(S(=O)(=O)N(C)Cc2cc(C(=O)N(C)Cc3ccc(C4=NCCN4)cc3)co2)c(C)cc1Cl
> 8.00

Need pIC50, item COc1cc(C)c(S(=O)(=O)N(Cc2nc(C(=O)N3CCN(CCN4CCCCC4)CC3)co2)C2CC2)c(C)c1 [Ex 194, trifluoroacetate]
> 8.00

Need pIC50, item COc1cc(C)c(S(=O)(=O)N(Cc2nc(C(=O)N3CCN(Cc4c[nH]nc4C)CC3)co2)C2CC2)c(C)c1
7.00 to 8.00

Need pIC50, item COc1cc(C)c(S(=O)(=O)N(C)Cc2noc(C(=O)N3CCC(CCN4CCCC4)CC3)n2)c(C)c1
> 8.00

Need pIC50, item COc1cc(C)c(S(=O)(=O)N(C)Cc2nnc(C(=O)N(C)Cc3ccc4c(c3)CN(C)C4)o2)c(C)c1
6.00 to 7.00

Need pIC50, item COc1cc(C)c(S(=O)(=O)N(Cc2cc(C(=O)N(C)Cc3ccc(CN4CCC(O)CC4)cc3)co2)C2CC2)c(C)c1
7.00 to 8.00

Need pIC50, item COc1cc(C)c(S(=O)(=O)N(Cc2nnc(C(=O)N3CCN(C4CCN(C)CC4)CC3)s2)C2CC2)c(C)c1
> 8.00

Need pIC50, item COc1cc(C)c(S(=O)(=O)N(Cc2noc(C(=O)N3CCN(C4CCN(C)CC4)CC3)n2)C2CC2)c(C)c1
> 8.00

Need pIC50, item CN(Cc1cc(C(=O)N2CCN(CCc3ccncc3)CC2)co1)S(=O)(=O)c1c(Cl)cccc1Cl
6.00 to 7.00

Need pIC50, item COc1cc(C)c(S(=O)(=O)N(C)Cc2noc(C(=O)N(C)CCc3ccc(C4=NCCN4)cc3)n2)c(C)c1
> 8.00

Need pIC50, item COc1cc(C)c(S(=O)(=O)N(Cc2nc(C(=O)N3CCN(CCCCN(C)C)CC3)co2)C2CC2)c(C)c1 [Ex 204, trifluoroacetate]
> 8.00

Need pIC50, item COc1cc(C)c(S(=O)(=O)N(C)Cc2nc(C(=O)N3CCN(CC4CCN(C)CC4)CC3)co2)c(C)c1
> 8.00

Need pIC50, item COc1cc(C)c(S(=O)(=O)N(C)Cc2nc(C(=O)N(C)Cc3nc(CN4CCCC4)cs3)co2)c(C)c1 [Ex 202, trifluoroacetate]
7.00 to 8.00

Need pIC50, item COc1cc(C)c(S(=O)(=O)N(C)Cc2cc(C(=O)N3CCN(CC4CCN(C)CC4)CC3)co2)c(C)c1
6.00 to 7.00

Need pIC50, item COc1cc(C)c(S(=O)(=O)N(C)Cc2cc(C(=O)NCc3cccc(CN4CCCC4)c3)co2)c(C)c1
6.00 to 7.00

Need pIC50, item COc1cc(C)c(S(=O)(=O)N(Cc2nc(C(=O)N3CCN(Cc4ccc(F)nc4)CC3)co2)C2CC2)c(C)c1 [Ex 234, trifluoroacetate]
6.00 to 7.00

Need pIC50, item COc1cc(C)c(S(=O)(=O)N(C)Cc2nc(C(=O)N(C)Cc3ccc(CN4CC(O)C4)cc3)co2)c(C)c1
7.00 to 8.00

Need pIC50, item COc1cc(C)c(S(=O)(=O)N(C)Cc2cc(C(=O)N(C)Cc3ccc(CN4CC(OC)C4)cc3)co2)c(C)c1
6.00 to 7.00

Need pIC50, item COc1cc(C)c(S(=O)(=O)N(Cc2cc(C(=O)N(C)Cc3ccc(C4=NCCN4)cc3)co2)C2CC2)c(C)c1 [Ex 83, trifluoroacetate]
7.00 to 8.00

Need pIC50, item COc1cc(C)c(S(=O)(=O)N(Cc2nc(C(=O)N(C)Cc3nc(CN4CCCC4)cs3)co2)C2CC2)c(C)c1 [Ex 200, trifluoroacetate]
> 8.00

Need pIC50, item COc1cc(C)c(S(=O)(=O)N(Cc2cc(C(=O)N3CCN(C4CC5CCC(C4)N5C)CC3)co2)C2CC2)c(C)c1 (centres unmarked) [Ex 107, trifluoroacetate]
7.00 to 8.00

Need pIC50, item COc1cc(C)c(S(=O)(=O)N(Cc2nc(C(=O)N(C)Cc3ccc(CN4CCC(C)(O)C4)cc3)co2)C2CC2)c(C)c1 (centres unmarked)
> 8.00
